- Test system: human Farnesoid X receptor ligand-binding domain/Gal4 DNA binding domain chimera (Homo sapiens (Human), UniProt Q96RI1)
- Sequence (Q96RI1 262-486, change not shown): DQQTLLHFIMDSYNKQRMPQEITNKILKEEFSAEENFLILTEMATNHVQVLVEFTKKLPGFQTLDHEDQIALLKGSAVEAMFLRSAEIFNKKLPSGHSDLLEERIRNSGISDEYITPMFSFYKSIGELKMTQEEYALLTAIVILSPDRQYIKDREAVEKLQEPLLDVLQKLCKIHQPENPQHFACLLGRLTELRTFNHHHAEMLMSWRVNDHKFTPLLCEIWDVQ
- Sequence (P04386 1-147 partner): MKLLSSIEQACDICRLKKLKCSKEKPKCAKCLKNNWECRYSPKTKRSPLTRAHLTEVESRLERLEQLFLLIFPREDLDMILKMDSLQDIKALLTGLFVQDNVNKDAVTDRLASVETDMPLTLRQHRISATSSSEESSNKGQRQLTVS
- Measurement description: Cell-based assay of FXR activation (FXR-UAS-bla HEK 293T beta-lactamase reporter)
- Test parameters: cellular FXR beta-lactamase reporter assay, FXR-UAS-bla HEK 293T cells, 16 h; pEC50 = -log EC50
Readout type: pEC50
Numbers only, as −log10 of the molar value.

The examples below pair each entry with its known result.
- Molecule: "Cc1cccc(Cl)c1-c1noc(C2CC2)c1CO[C@@H]1C[C@@H]2C[C@H]1C(=O)N2c1ccc(C(=O)O)cc1"
  Observed measurement: 8.80
- Molecule: "O=C(O)c1cc([C@@H]2CCOC2)c2nc(N3C[C@@H]4C[C@H]3C[C@H]4OCc3c(-c4c(F)cccc4Cl)noc3C3CC3)sc2c1"
  Observed measurement: 9.60

Provide pEC50 for all items below, preserving their order.
1. O=C(NS(=O)(=O)c1cn[nH]c1)c1ccc(N2C[C@@H]3C[C@H]2C[C@H]3OCc2c(-c3c(Cl)cccc3Cl)noc2C2CC2)cc1
2. O=C(NS(=O)(=O)C1CC1)c1ccc(N2C[C@@H]3C[C@H]2C[C@H]3OCc2c(-c3c(Cl)cccc3Cl)noc2C2CC2)cc1
3. O=C(O)c1cc(OC2CC2)c2nc(N3C[C@@H]4C[C@H]3C[C@H]4OCc3c(-c4c(F)cccc4Cl)noc3C3CC3)sc2c1

Result:
8.20
9.70
10.00
